biological target: Recombinant human ULK1 (1-649) (Homo sapiens (Human), UniProt O75385); test: ULK1 ADP Glo kinase activity assay, new method (ULKtide peptide substrate); conditions: 25° C., 40 minutes, read-out: ULK1 biochemical IC50
Sequence (O75385 1-649): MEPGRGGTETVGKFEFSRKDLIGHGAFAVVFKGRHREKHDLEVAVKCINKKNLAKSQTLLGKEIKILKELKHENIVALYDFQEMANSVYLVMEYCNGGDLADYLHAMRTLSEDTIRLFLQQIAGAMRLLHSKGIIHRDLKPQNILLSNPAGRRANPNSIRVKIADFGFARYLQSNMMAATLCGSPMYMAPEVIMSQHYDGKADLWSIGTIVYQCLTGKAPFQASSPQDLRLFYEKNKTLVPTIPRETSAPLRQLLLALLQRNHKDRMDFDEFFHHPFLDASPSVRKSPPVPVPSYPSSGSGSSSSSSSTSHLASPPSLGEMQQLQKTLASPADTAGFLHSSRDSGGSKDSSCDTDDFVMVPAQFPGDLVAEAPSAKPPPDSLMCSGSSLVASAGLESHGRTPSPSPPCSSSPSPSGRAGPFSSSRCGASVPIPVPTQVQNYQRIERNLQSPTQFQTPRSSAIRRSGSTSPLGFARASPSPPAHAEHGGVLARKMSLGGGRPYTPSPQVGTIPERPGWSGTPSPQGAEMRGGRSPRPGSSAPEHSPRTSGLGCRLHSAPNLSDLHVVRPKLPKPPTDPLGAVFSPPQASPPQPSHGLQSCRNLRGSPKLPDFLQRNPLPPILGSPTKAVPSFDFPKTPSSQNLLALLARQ
pIC50: −log10 of the molar value.
Measured pIC50 values are reported for all entries that follow.

[
  {
    "entry smiles": "CN1CCc2cc(Nc3ncc(C(F)(F)F)c(-c4cc5c(s4)C(=O)N(CC(F)(F)F)CCS5(=O)=O)n3)c(Cl)cc2C1",
    "pIC50": "≥ 8.30"
  }
]

Sure, the documented pIC50 for C[C@@H]1CN(c2ccc(Nc3ncc(C(F)(F)F)c(-c4cc5c(s4)C(=O)N(C4COC4)CCS5(=O)=O)n3)c(C3CC3)n2)CCN1C is ≥ 8.30

Sure, the documented pIC50 for CCc1cc2c(cc1Nc1ncc(C(F)(F)F)c(-c3cc4c(s3)C(=O)NCCS4(=O)=O)n1)CCNC2 is ≥ 8.30

Sure, the documented pIC50 for O=C1c2sc(-c3nc(Nc4ccc(N5C[C@H]6C[C@@H]5CN6)cc4C4CC4)ncc3C(F)(F)F)cc2S(=O)(=O)CCN1C1CC1 is ≥ 8.30

Sure, the documented pIC50 for CN1[C@@H]2CC[C@H]1CN(c1ccc(Nc3ncc(C(F)(F)F)c(-c4cc5c(s4)C(=O)N(C4CC4)CCS5(=O)=O)n3)c(C3CC3)c1)C2 is ≥ 8.30

Sure, the documented pIC50 for O=C1c2sc(-c3nc(Nc4cc5c(cc4C4CC4)CN(CC4CC4)CC5)ncc3C(F)(F)F)cc2S(=O)(=O)CCN1C1CC1 is ≥ 8.30

Sure, the documented pIC50 for CN1CCS(=O)(=O)c2cc(-c3nc(Nc4ccc(N5CCNCC5)cc4Cl)ncc3C(F)(F)F)sc2C1=O is ≥ 8.30

Sure, the documented pIC50 for CCc1cc(N2CCN[C@@H](CO)C2)ccc1Nc1ncc(C(F)(F)F)c(-c2cc3c(s2)C(=O)N(C2CC2)CCS3(=O)=O)n1 is ≥ 8.30

Sure, the documented pIC50 for CCc1cc2c(cc1Nc1ncc(C(F)(F)F)c(-c3cc4c(s3)C(=O)N(C)CCS4(=O)=O)n1)CCN(CC)C2 is ≥ 8.30

Sure, the documented pIC50 for CCc1cc(C2CCN(CCF)CC2)ccc1Nc1ncc(C(F)(F)F)c(-c2cc3c(s2)C(=O)N(C2CC2)CCS3(=O)=O)n1 is ≥ 8.30

* * *

Measured pIC50 values are reported for all entries that follow.
biological target: Recombinant human ULK1 (1-649) (Homo sapiens (Human)); assay: ULK1 ADP Glo kinase activity assay (MBP substrate); conditions: 25° C., 40 minutes, read-out: ULK1 biochemical IC50
pIC50: −log10 of the molar value.

Sure, the documented pIC50 for CCc1cc2c(cc1Nc1ncc(C(F)(F)F)c(-c3cc4c(s3)CCNC4=O)n1)CCNC2 is ≥ 8.00

Sure, the documented pIC50 for COCCS(=O)(=O)c1csc(-c2nc(Nc3cc4c(cc3Cl)CNCC4)ncc2C(F)(F)F)c1 is ≥ 8.00

Sure, the documented pIC50 for O=S(=O)(CCN1CCOCC1)c1csc(-c2nc(Nc3cc4c(cc3Cl)CNCC4)ncc2C(F)(F)F)c1 is 6.30 to 7.00

Sure, the documented pIC50 for CS(=O)(=O)c1cc(-c2nc(Nc3cc4c(cc3Cl)CNCC4)ncc2C(F)(F)F)sc1CN1CCOCC1 is 7.30 to 8.00
